protein stability index values for the variants below.
B1: EPB41L3 (parent)
chain: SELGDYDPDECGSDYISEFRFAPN

Variants of: B1
Assay: protein stability index of a GFP-peptide fusion (GPS, HEK-293T) (PSI 1-6); higher = more stable;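 also: lentivirally expressed fusions sorted by FACS into six bins by GFP to DsRed ratio, PSI derived from sequencing read proportions per bin multiplied by bin number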
Details: c terminus: a fixed tail appended
result-type: protein stability index

[[record]]
variant_string = "N24I"
result_type = "protein stability index"
recorded_value = 2.55

[[record]]
variant_string = "P8L"
result_type = "protein stability index"
recorded_value = 2.26

[[record]]
variant_string = "P23C"
result_type = "protein stability index"
recorded_value = 2.12

[[record]]
variant_string = "E18I"
result_type = "protein stability index"
recorded_value = 2.41

[[record]]
variant_string = "P23V"
result_type = "protein stability index"
recorded_value = 2.53

[[record]]
variant_string = "S13C"
result_type = "protein stability index"
recorded_value = 1.84

[[record]]
variant_string = "G4M"
result_type = "protein stability index"
recorded_value = 2.12

[[record]]
variant_string = "F21I"
result_type = "protein stability index"
recorded_value = 4.38

[[record]]
variant_string = "D7F"
result_type = "protein stability index"
recorded_value = 2.29

[[record]]
variant_string = "G12K"
result_type = "protein stability index"
recorded_value = 1.9

[[record]]
variant_string = "S17W"
result_type = "protein stability index"
recorded_value = 1.76

[[record]]
variant_string = "D7N"
result_type = "protein stability index"
recorded_value = 1.68

[[record]]
variant_string = "E2K"
result_type = "protein stability index"
recorded_value = 1.94

[[record]]
variant_string = "G4T"
result_type = "protein stability index"
recorded_value = 2.39

[[record]]
variant_string = "D14N"
result_type = "protein stability index"
recorded_value = 1.99

[[record]]
variant_string = "D14H"
result_type = "protein stability index"
recorded_value = 1.86

[[record]]
variant_string = "I16F"
result_type = "protein stability index"
recorded_value = 2.26

[[record]]
variant_string = "G12Q"
result_type = "protein stability index"
recorded_value = 2.04

[[record]]
variant_string = "E18W"
result_type = "protein stability index"
recorded_value = 1.99

[[record]]
variant_string = "F19W"
result_type = "protein stability index"
recorded_value = 2.61

[[record]]
variant_string = "A22H"
result_type = "protein stability index"
recorded_value = 2.13

[[record]]
variant_string = "Y6I"
result_type = "protein stability index"
recorded_value = 2.06


The measurements presented in this section are drawn from the supplement of paper PMC10567573.
